Here, each record is paired with measured Binding affinity data.
Molecular target: Platelet-activating factor receptor (Homo sapiens)
Sequence (P25105 whole entry): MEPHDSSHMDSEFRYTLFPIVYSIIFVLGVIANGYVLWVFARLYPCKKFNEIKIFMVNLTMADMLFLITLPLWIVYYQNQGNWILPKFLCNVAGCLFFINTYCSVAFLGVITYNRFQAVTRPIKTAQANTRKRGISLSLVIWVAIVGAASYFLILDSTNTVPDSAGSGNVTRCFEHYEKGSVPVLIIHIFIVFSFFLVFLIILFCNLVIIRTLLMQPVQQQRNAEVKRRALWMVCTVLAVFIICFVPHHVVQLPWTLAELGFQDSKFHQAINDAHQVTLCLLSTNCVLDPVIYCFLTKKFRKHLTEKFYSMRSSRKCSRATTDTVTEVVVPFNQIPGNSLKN
Assay: Binding affinity against platelet activating factor
READOUT_KIND: Binding affinity

molecule="COCO[C@@H]1C(=O)O[C@H]2O[C@@]34CCCC35[C@@H](C[C@@H](C(C)(C)C)[C@@]215)OC4=O (some centres undefined)" observed_value="21 µM"
molecule=CC(=O)O[C@H]1C(=O)OC[C@@]12C13CCC[C@]14O[C@@]2(C(C)(C)C)C[C@H]3OC4=O observed_value="13 µM"
molecule="CC(C)(C)[C@@H]1C[C@H]2OC(=O)[C@]34CC=CC23[C@]12CC(=O)O[C@H]2O4 (some centres undefined)" observed_value="80 µM"
molecule="CO[C@H]1C[C@@]23[C@@H](O1)O[C@@]14CC=CC21[C@@H](C[C@H]3C(C)(C)C)OC4=O (some centres undefined)" observed_value="120 µM"
molecule="CC(C)(C)[C@@]12C[C@H]3OC(=O)[C@@]4(C[C@@H](Cl)[C@H](Cl)C34C13COC(=O)[C@H]3O)O2 (some centres undefined)" observed_value="1.1 µM"
molecule="C[C@@H]1C(=O)O[C@H]2CC34[C@H]5C[C@@H](C(C)(C)C)C36C(=O)C(=O)O[C@H]6O[C@@]4(C(=O)O5)[C@]21O (some centres undefined)" observed_value="3.9 µM"
molecule="CC(C)(C)[C@@H]1C[C@H]2OC(=O)[C@@]34CC5OC6C[C@@]1([C@@H](O6)O3)[C@@]24C5Br (some centres undefined)" observed_value="2.9 µM"
molecule="COCO[C@@H]1C(=O)O[C@H]2O[C@@]34C[C@@H](Br)[C@H](OCOC)C35[C@@H](C[C@@H](C(C)(C)C)C215)OC4=O (some centres undefined)" observed_value="0.6 µM"
molecule=COCO[C@H]1C(=O)OC[C@@]12C13CCC[C@]14O[C@@]2(C(C)(C)C)C[C@H]3OC4=O observed_value="9.4 µM"
molecule="CC(C)(C)[C@@]12C[C@H]3OC(=O)[C@@]4(CCCC34C13COC(=O)C3=O)O2 (some centres undefined)" observed_value="18 µM"
molecule="CC1(C)C[C@@]2(O)C(=O)O[C@H]3O[C@@]45CCCC46[C@@H](C[C@@H]1C362)OC5=O (some centres undefined)" observed_value="9.2 µM"
molecule="C[C@@H]1C(=O)O[C@H]2CC34[C@@H]5OC(=O)[C@]3(O[C@@H]3OC(=O)[C@H](O)C34[C@H](C(C)(C)C)[C@H]5O)[C@]21O (some centres undefined)" observed_value="130 µM"
molecule="C[C@@H]1C(=O)O[C@H]2[C@H](O)[C@@]34[C@H]5C[C@@H](C(C)(C)C)[C@]36[C@@H](OC(=O)[C@@H]6O)O[C@@]4(C(=O)O5)[C@@]12O [GINKOLIDE B]" observed_value="0.6 µM"
molecule="CC(C)(C)[C@@]12C[C@H]3OC(=O)[C@@]4(C[C@@H](Cl)CC34C13COC(=O)[C@H]3O)O2 (some centres undefined)" observed_value="1.1 µM"

* * *

Biological target: Platelet-activating factor receptor (Homo sapiens)
Test: Binding affinity against platelet activating factor
Here, each record is paired with measured Binding affinity data.
READOUT_KIND: Binding affinity (µM)

compound="C[C@@H]1C(=O)O[C@H]2[C@H](O)C34[C@H]5C[C@H]6C(C)(C)C[C@@]7(O)C(=O)O[C@@H](O[C@@]3(C(=O)O5)[C@@]12O)C647 (stereo partly drawn)" unit_name=µM observed_value=0.7
compound=CC(C)(C)[C@]12C[C@H]3OC(=O)[C@@]4(C[C@@H](Cl)[C@H](Cl)C34[C@@]13COC(=O)[C@@H]3O)O2 unit_name=µM observed_value=38
compound="C[C@@H]1C(=O)O[C@H]2[C@H](O)C34[C@@H]5OC(=O)[C@]3(O[C@@H]3OC(=O)[C@H](O)C34[C@H](C(C)(C)C)[C@H]5O)[C@@]12O (stereo partly drawn)" unit_name=µM observed_value=17
